Measured Max specific lysis (%), ADCC with human PBMC, listed per entry.
subject.of.test: human CCR8 (human, UniProt P51685 1-355)
Sequence (P51685 whole entry): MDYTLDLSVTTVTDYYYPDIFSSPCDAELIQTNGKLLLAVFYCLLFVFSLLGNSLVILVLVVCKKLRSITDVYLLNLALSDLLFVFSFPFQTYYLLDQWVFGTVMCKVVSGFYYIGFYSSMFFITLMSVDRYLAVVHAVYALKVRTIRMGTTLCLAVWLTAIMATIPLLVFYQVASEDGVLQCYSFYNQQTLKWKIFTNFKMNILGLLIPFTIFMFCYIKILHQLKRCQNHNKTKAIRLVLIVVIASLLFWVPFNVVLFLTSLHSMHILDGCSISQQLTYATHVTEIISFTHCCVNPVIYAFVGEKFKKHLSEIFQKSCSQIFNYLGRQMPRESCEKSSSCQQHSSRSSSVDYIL
test.protocol: cell-based or functional assay
Express your answer in %, writing the number without its unit.

Here is how some binders turned out for Max specific lysis (%), ADCC with human PBMC.
CM348 (antibody, V domains shown, CM348 is not defined in words; also called CM348 HuIgG1; parental antibody CM348) VH: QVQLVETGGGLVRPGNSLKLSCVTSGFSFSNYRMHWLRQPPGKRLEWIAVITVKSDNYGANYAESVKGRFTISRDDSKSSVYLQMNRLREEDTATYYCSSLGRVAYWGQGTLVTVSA VL: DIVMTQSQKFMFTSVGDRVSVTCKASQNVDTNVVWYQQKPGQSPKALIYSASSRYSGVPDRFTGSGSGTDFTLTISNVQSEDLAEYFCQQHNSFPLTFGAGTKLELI | 13.1
Hu149-4 (antibody, human IgG1, V domains shown, humanized, human IgG1; also called Hu149-4 HuIgG1) VH: EVQLVESGGGLVQPGGSLKLSCAASGFTFNTYAMNWVRQASGKGLEWVGRIRSKSNFYATYYAASVKGRFTISRDDSKNTAYLQMNSLKTEDTAVYYCTRGRDYGSSYAMDYWGQGTLVTVSS VL: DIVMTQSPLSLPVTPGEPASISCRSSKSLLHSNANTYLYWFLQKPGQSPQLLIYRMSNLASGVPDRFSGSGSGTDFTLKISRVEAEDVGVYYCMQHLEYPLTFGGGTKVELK | 8.76

Lab note: next binder to report on.
[in] Quick check: Max specific lysis (%), ADCC with human PBMC of Hu149-9 (antibody, human IgG1, V domains shown, humanized, human IgG1; also called Hu149-9 HuIgG1) VH: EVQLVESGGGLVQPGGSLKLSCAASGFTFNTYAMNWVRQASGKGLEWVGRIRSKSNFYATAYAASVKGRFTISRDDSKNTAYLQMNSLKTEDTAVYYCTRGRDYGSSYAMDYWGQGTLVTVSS VL: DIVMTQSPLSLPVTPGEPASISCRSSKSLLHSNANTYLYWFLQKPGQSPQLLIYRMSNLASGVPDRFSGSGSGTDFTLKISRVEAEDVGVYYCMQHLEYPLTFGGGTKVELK ?
[out] 7.56
